Reference source for all entries: ChEMBL document CHEMBL5579830

- assay.procedure: Inhibition of bovine liver beta-galactosidase using p-nitrophenyl glycoside as substrate assessed as release of p-nitrophenol by spectrometric analysis
- Parameters: species or system Bos taurus
value.kind: IC50 (nM)
Supply the numeric figure in nM, leaving out any unit text.

Given `CCCCCC[C@@H](O)[C@H]1N[C@H](CO)[C@@H](O)[C@@H]1O` , respond with its IC50. 50

Given `CCCCCCC[C@H](O)[C@@H]1N[C@@H](CO)[C@H](O)[C@H]1O` , respond with its IC50. 41000

Given `Cl.OCCC[C@@H](O)CCCCCCCC[C@@H](O)[C@@H]1N[C@@H](CO)[C@H](O)[C@H]1O` , respond with its IC50. 2300

Given `OCCC[C@H](O)CCCCCCCC[C@H](O)[C@@H]1N[C@@H](CO)[C@H](O)[C@H]1O` , respond with its IC50. 5100

Given `CCCCCCC[C@H](O)[C@H]1N[C@H](CO)[C@@H](O)[C@@H]1O` , respond with its IC50. 390

Given `OCCC[C@@H](O)CCCCCCCCC[C@H]1N[C@H](CO)[C@@H](O)[C@@H]1O` , respond with its IC50. 2300

Given `CCCCCCC[C@@H](O)[C@H]1N[C@H](CO)[C@@H](O)[C@@H]1O` , respond with its IC50. 15

Given `OCCC[C@@H](O)CCCCCCCC[C@H](O)[C@@H]1N[C@@H](CO)[C@H](O)[C@H]1O` , respond with its IC50. 740

====

- test.target: Alpha-glucosidase (Saccharomyces cerevisiae S288c, UniProt P53341+P38158+P07265)
- assay.procedure: Inhibition of yeast alpha-glucosidase using p-nitrophenyl glycoside as substrate assessed as release of p-nitrophenol by spectrometric analysis
- Type: protein assay
// boundary case: IC50 equal to 50 µM maps to NO; strictly smaller maps to YES

Does the reported IC50 of the following molecule sit strictly below 50 µM? `CCCCCCCC[C@H](O)[C@H]1N[C@H](CO)[C@@H](O)[C@@H]1O.Cl` NO

Does the reported IC50 of the following molecule sit strictly below 50 µM? `CCCCCCCCC[C@@H](O)[C@H]1N[C@H](CO)[C@@H](O)[C@@H]1O.Cl` YES

Does the reported IC50 of the following molecule sit strictly below 50 µM? `CCCCCCCC[C@@H](O)[C@H]1N[C@H](CO)[C@@H](O)[C@@H]1O.Cl` YES

Does the reported IC50 of the following molecule sit strictly below 50 µM? `CCCCCCCCC[C@H](O)[C@H]1N[C@H](CO)[C@@H](O)[C@@H]1O.Cl` NO

====

- assay.procedure: Inhibition of snail beta-mannosidase using p-nitrophenyl glycoside as substrate assessed as release of p-nitrophenol by spectrometric analysis
- Design: species or system Helix pomatia
value.kind: IC50 (µM)
Supply the numeric figure in µM, leaving out any unit text.

Given `OCCC[C@H](O)CCCCCCCC[C@@H](O)[C@H]1N[C@H](CO)[C@@H](O)[C@@H]1O` , respond with its IC50. 71

Given `CCCCCCC[C@@H](O)[C@H]1N[C@H](CO)[C@@H](O)[C@@H]1O` , respond with its IC50. 96

Given `OCCC[C@@H](O)CCCCCCCC[C@@H](O)[C@H]1N[C@H](CO)[C@@H](O)[C@@H]1O` , respond with its IC50. 62

====

Assign pIC50 to each entry below.
- assay.procedure: Inhibition of rice alpha-glucosidase using p-nitrophenyl glycoside as substrate assessed as release of p-nitrophenol by spectrometric analysis
- Design: species or system Oryza sativa
Here pIC50 is given on a logarithmic scale as minus log10 of the concentration in mol/L.

Given `OCCC[C@H](O)CCCCCCCC[C@H](O)[C@@H]1N[C@@H](CO)[C@H](O)[C@H]1O` , respond with its pIC50. 5.14

Given `CCCCCCC[C@H](O)[C@@H]1N[C@@H](CO)[C@H](O)[C@H]1O` , respond with its pIC50. 5.22

Given `OCCC[C@@H](O)CCCCCCCC[C@H](O)[C@@H]1N[C@@H](CO)[C@H](O)[C@H]1O` , respond with its pIC50. 4.96

Given `OCCC[C@H](O)CCCCCCCCC[C@@H]1N[C@@H](CO)[C@H](O)[C@H]1O` , respond with its pIC50. 5.92

====

Assign pIC50 to each entry below.
- assay.procedure: Inhibition of bovine liver beta-galactosidase using p-nitrophenyl glycoside as substrate assessed as release of p-nitrophenol by spectrometric analysis
- Parameters: species or system Bos taurus
Here pIC50 is given on a logarithmic scale as minus log10 of the concentration in mol/L.

Given `OCCC[C@@H](O)CCCCCCCC[C@@H](O)[C@H]1N[C@H](CO)[C@@H](O)[C@@H]1O` , respond with its pIC50. 8.30

Given `OCCC[C@H](O)CCCCCCCC[C@@H](O)[C@H]1N[C@H](CO)[C@@H](O)[C@@H]1O` , respond with its pIC50. 8.15

Given `OCCC[C@H](O)CCCCCCCC[C@H](O)[C@H]1N[C@H](CO)[C@@H](O)[C@@H]1O` , respond with its pIC50. 7.21

Given `CCCCCC[C@H](O)[C@H]1N[C@H](CO)[C@@H](O)[C@@H]1O` , respond with its pIC50. 6.44

Given `OCCC[C@H](O)CCCCCCCC[C@@H](O)[C@@H]1N[C@@H](CO)[C@H](O)[C@H]1O` , respond with its pIC50. 5.41

Given OCCC[C@@H](O)CCCCCCCC[C@H](O)C1N[C@H](CO)[C@@H](O)[C@@H]1O (single isomer, unassigned) , respond with its pIC50. 7.34

Given `OCCC[C@H](O)CCCCCCCCC[C@@H]1N[C@@H](CO)[C@H](O)[C@H]1O` , respond with its pIC50. 4.30

Given `CCCCCCC[C@@H](O)[C@@H]1N[C@@H](CO)[C@H](O)[C@H]1O` , respond with its pIC50. 4.54

====

Assign pIC50 to each entry below.
- assay.procedure: Inhibition of Aspergillus niger amyloglucosidase using p-nitrophenyl glycoside as substrate assessed as release of p-nitrophenol by spectrometric analysis
Here pIC50 is given on a logarithmic scale as minus log10 of the concentration in mol/L.

Given `OCCC[C@@H](O)CCCCCCCC[C@@H](O)[C@H]1N[C@H](CO)[C@@H](O)[C@@H]1O` , respond with its pIC50. 4.21

Given `CCCCCC[C@@H](O)[C@H]1N[C@H](CO)[C@@H](O)[C@@H]1O` , respond with its pIC50. 4.04

Given `OCCC[C@H](O)CCCCCCCC[C@@H](O)[C@H]1N[C@H](CO)[C@@H](O)[C@@H]1O` , respond with its pIC50. 4.14

Given `CCCCCCC[C@@H](O)[C@H]1N[C@H](CO)[C@@H](O)[C@@H]1O` , respond with its pIC50. 4.04

====

- test.target: Tissue alpha-L-fucosidase (Bos taurus)
- Sequence (whole entry): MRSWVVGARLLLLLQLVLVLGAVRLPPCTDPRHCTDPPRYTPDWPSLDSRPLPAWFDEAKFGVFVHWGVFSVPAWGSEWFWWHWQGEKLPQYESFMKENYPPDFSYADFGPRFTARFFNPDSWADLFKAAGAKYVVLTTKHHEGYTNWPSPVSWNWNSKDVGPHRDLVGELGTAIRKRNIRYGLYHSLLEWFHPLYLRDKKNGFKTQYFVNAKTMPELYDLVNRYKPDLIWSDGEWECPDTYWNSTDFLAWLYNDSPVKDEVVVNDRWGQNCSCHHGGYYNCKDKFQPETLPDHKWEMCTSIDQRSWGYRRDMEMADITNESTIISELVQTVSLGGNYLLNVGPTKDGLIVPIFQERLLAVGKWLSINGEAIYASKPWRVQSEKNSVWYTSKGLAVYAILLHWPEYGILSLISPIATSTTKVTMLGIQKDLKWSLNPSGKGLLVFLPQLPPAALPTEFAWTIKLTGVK
- assay.procedure: Inhibition of bovine kidney alpha-L-fucosidase using p-nitrophenyl glycoside as substrate assessed as release of p-nitrophenol at 1000 uM by spectrometric analysis relative to control
I'd appreciate it if you could label each record using inhibition and these ranges: bin 1 (below 0.9%), bin 2 (0.9% to below 6%), bin 3 (6% or more)

Classify this compound: `Cl.OCCC[C@@H](O)CCCCCCCC[C@@H](O)[C@@H]1N[C@@H](CO)[C@H](O)[C@H]1O` bin 3

Classify this compound: `OCCC[C@H](O)CCCCCCCCC[C@@H]1N[C@@H](CO)[C@H](O)[C@H]1O` bin 1

Classify this compound: `OCCC[C@@H](O)CCCCCCCC[C@H](O)[C@@H]1N[C@@H](CO)[C@H](O)[C@H]1O` bin 2

Classify this compound: `OCCC[C@@H](O)CCCCCCCCC[C@H]1N[C@H](CO)[C@@H](O)[C@@H]1O` bin 1

Classify this compound: `OCCC[C@H](O)CCCCCCCC[C@@H](O)[C@H]1N[C@H](CO)[C@@H](O)[C@@H]1O` bin 1

Classify this compound: `OCCC[C@H](O)CCCCCCCC[C@@H](O)[C@@H]1N[C@@H](CO)[C@H](O)[C@H]1O` bin 2

Classify this compound: `OCCC[C@@H](O)CCCCCCCC[C@@H](O)[C@H]1N[C@H](CO)[C@@H](O)[C@@H]1O` bin 3

Classify this compound: OCCC[C@@H](O)CCCCCCCC[C@H](O)C1N[C@H](CO)[C@@H](O)[C@@H]1O (single isomer, unassigned) bin 1
